methodSummary: recombinant UMI read abundance after kanamycin selection (control-corrected) (log10(CPM+1)); higher = more efficient recombination; extreme values may be limits of the assay; sequences stand for … in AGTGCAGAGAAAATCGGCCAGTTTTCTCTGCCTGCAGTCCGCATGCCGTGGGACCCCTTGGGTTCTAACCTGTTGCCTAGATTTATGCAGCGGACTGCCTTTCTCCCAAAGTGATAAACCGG…AGGTTGGTTTCACT; site = the 11-nt donor
Please respond with reported recombinant UMI read abundance (log10) for every item in the list.
Give bare numbers.

>>> df
                              chainsequence  resultvalue
0  GAGCAGACATGGACCGGTTTTCCCGGTAATCCGTATTTGTG (site GAGCAGACTCA)         1.25

Each sequence below has a reported value. Please supply its recombinant UMI read abundance (log10).
1. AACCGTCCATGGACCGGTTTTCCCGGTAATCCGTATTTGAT (site AAGCGTCCTAT)
2. ACACCTCCATGGACCGGTTTTCCCGGTAATCCGTATTTGAC (site ACACTTCCTGT)

1: 0; 2: 0

Each sequence below has a reported value. Please supply its recombinant UMI read abundance (log10).
1. CGTTTGACATGGACCGGTTTTCCCGGTAATCCGTATTTGCT (site CGTTTGACTAG)
2. GGGCATGCATGGACCGGTTTTCCCGGTAATCCGTATTTGGT (site GTGCATGCTAC)

1: 2.38; 2: 0.161

---

methodSummary: recombinant UMI read abundance after kanamycin selection (control-corrected) (log10(CPM+1)); higher = more efficient recombination; extreme values may be limits of the assay; sequences stand for … in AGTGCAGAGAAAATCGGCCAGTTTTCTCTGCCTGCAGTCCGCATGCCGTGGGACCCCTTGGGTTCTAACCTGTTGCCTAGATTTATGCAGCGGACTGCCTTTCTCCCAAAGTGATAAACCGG…AGGTTGGTTTCACT; site = the 11-nt donor
Please respond with reported recombinant UMI read abundance (log10) for every item in the list.
Give bare numbers.

Some sequences with recorded recombinant UMI read abundance (log10):
In [3]: df
Out[3]:
                              chainsequence                       attributemeasured  resultvalue
0  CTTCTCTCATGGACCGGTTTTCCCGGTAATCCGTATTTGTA (site CTACTCTCTTA)  recombinant UMI read abundance (log10)        0.967
1  TAGAGTCCATGGACCGGTTTTCCCGGTAATCCGTATTTGTA (site TAAAGTCCTTA)  recombinant UMI read abundance (log10)        0.546
2  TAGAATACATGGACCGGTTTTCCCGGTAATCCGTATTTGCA (site TTGAATACTTG)  recombinant UMI read abundance (log10)         0.27

The record that follows has no recombinant UMI read abundance (log10) shown yet.
So what's the measured recombinant UMI read abundance (log10) for this one? GGACCATCATGGACCGGTTTTCCCGGTAATCCGTATTTGTC (site GGACCATCTGA)
2.27

---

Please respond with reported recombinant barcode read abundance (log10) for every item in the list.
methodSummary: recombinant barcode read abundance after kanamycin selection (control-corrected) (log10(CPM+1)); higher = more efficient recombination; sequences stand for … in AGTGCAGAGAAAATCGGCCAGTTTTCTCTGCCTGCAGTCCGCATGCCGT…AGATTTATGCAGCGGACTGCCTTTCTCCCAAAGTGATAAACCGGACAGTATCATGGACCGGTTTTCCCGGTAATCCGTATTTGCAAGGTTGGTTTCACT; site = the 11-nt target
Numbers only.

>>> df
                              chainsequence  resultvalue
0  AAGAACTCTTGGGTTCTAACCTGTTGCCA (site GGCGTGCCTAC)        0.199
1  CTTCGTCCTTGGGTTCTAACCTGTTGCTT (site CTTCGTCCTAA)        0.206

The record that follows has no recombinant barcode read abundance (log10) shown yet.
So what's the measured recombinant barcode read abundance (log10) for this one? GGCTGTTCTTGGGTTCTAACCTGTTGCCT (site GACTGTTCTAG)
0.195

---

Please respond with reported recombinant UMI read abundance (log10) for every item in the list.
methodSummary: recombinant UMI read abundance after kanamycin selection (control-corrected) (log10(CPM+1)); higher = more efficient recombination; extreme values may be limits of the assay; sequences stand for … in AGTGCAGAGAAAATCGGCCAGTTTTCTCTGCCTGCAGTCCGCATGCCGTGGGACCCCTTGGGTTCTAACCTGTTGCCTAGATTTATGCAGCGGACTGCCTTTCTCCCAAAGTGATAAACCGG…AGGTTGGTTTCACT; site = the 11-nt donor
Numbers only.

>>> df
                              chainsequence  resultvalue
0  CGGGCATCATGGACCGGTTTTCCCGGTAATCCGTATTTGCT (site CGGGCATCTAG)         1.86
1  AGGGCACCATGGACCGGTTTTCCCGGTAATCCGTATTTGCA (site AGGGCACCTTG)        0.655
2  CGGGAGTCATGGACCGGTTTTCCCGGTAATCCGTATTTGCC (site CGGCAGTCTGG)            0
3  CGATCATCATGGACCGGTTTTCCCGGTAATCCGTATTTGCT (site CCAGCATCTAG)       0.0355
4  TGGCCGACATGGACCGGTTTTCCCGGTAATCCGTATTTGGC (site TGGCCGTCTGC)            0

Each sequence below has a reported value. Please supply its recombinant UMI read abundance (log10).
1. CAATTGCCATGGACCGGTTTTCCCGGTAATCCGTATTTGCT (site CAATTGCCTAG)
2. GTAGGTACATGGACCGGTTTTCCCGGTAATCCGTATTTGAA (site GTAGGTACTCT)
3. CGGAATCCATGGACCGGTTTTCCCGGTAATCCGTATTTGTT (site CGGAATTCTAG)
4. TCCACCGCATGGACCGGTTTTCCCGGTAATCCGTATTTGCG (site ACCACCGCTCG)
5. AATATAACATGGACCGGTTTTCCCGGTAATCCGTATTTGCT (site AATTTAACTAG)
6. GAATGACCATGGACCGGTTTTCCCGGTAATCCGTATTTGCA (site GAATGCCCTTG)
7. GAATACTCATGGACCGGTTTTCCCGGTAATCCGTATTTGAT (site GAATACTCTAT)

1. 1.32
2. 0.518
3. 0
4. 0.0347
5. 0.0427
6. 0
7. 2.8

Each sequence below has a reported value. Please supply its recombinant UMI read abundance (log10).
1. GAAGCATCATGGACCGGTTTTCCCGGTAATCCGTATTTGCA (site GAAGCATCTTG)
2. CACTCATCATGGACCGGTTTTCCCGGTAATCCGTATTTGCC (site CACTCATCTGG)

1: 2.67; 2: 1.74

---

methodSummary: recombinant UMI read abundance after kanamycin selection (control-corrected) (log10(CPM+1)); higher = more efficient recombination; extreme values may be limits of the assay; sequences stand for … in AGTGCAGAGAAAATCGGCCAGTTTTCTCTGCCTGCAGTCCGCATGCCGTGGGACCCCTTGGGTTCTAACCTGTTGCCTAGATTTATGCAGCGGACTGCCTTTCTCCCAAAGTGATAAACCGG…AGGTTGGTTTCACT; site = the 11-nt donor
Returns one of Met or Not met; Met when recombinant UMI read abundance (log10) is >= 0.009.

These solved cases illustrate the format of a correct answer.
>>> df
                              chainsequence    group
0  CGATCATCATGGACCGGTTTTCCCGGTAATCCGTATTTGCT (site CGATCATCTGT)  Not met
1  CAGATACCATGGACCGGTTTTCCCGGTAATCCGTATTTGGA (site CAGATACCTTC)      Met
2  AGGACCACATGGACCGGTTTTCCCGGTAATCCGTATTTGAC (site AGGACGACTGT)  Not met

Is reported recombinant UMI read abundance (log10) greater than or equal to 0.009 here: TGGACATCATGGACCGGTTTTCCCGGTAATCCGTATTTGCT (site AGGACATCTAG)
Met

Is reported recombinant UMI read abundance (log10) greater than or equal to 0.009 here: GCCGCTCCATGGACCGGTTTTCCCGGTAATCCGTATTTGGT (site GCCGCTCCTAC)
Met

Is reported recombinant UMI read abundance (log10) greater than or equal to 0.009 here: TCGACAGCATGGACCGGTTTTCCCGGTAATCCGTATTTGTA (site TCGACAGCTTA)
Met

Is reported recombinant UMI read abundance (log10) greater than or equal to 0.009 here: TGCCACCCATGGACCGGTTTTCCCGGTAATCCGTATTTGTT (site TGCCACCCTAA)
Met

Is reported recombinant UMI read abundance (log10) greater than or equal to 0.009 here: AATTATCCATGGACCGGTTTTCCCGGTAATCCGTATTTGGA (site AATTATTCTTC)
Met

Sourced from the supplement of paper PMC11208160
